A set of substances tested on soluble human C3b (human), with measured iC3b Screen Ref Fold (fold vs CFI-HSA wild type):
Write no unit; give the number alone.

Please review the entries below; each comes with its answer.
# substance, quantitative readout
data = [
    ("CFI-HSA variant ΔC-term (Δ558-PFISQYNV (SEQ ID NO: 14)-565) (enzyme)", 0.03),
    ("CFI-HSA E457G; E461Q; F464Y; N531G; GGSSGG (SEQ ID NO: 6); CR1 (ccp15-17) (from UniProt P17927) (enzyme)", 0.13),
    ("fH_CCP1-4; GGGGSS(7); wt hCFI (enzyme)", 0.77),
    ("WT; GGSSGG (SEQ ID NO: 6); CCP_1-4; GGSS(6) + G; compstatin (enzyme)", 0.11),
    ("WT; GGSSGG (SEQ ID NO: 6); CCP_2-4 (enzyme)", 0),
]

Check soluble human C3b (human) data and give iC3b Screen Ref Fold (fold vs CFI-HSA wild type) for CFI-HSA E457G; N531G; E461Q; R462K; F464Y; GGSSGG (SEQ ID NO: 6); CR1 (ccp1-3) (from UniProt P17927) (enzyme) .
0.14

Check soluble human C3b (human) data and give iC3b Screen Ref Fold (fold vs CFI-HSA wild type) for CFI-HSA Y408L; E457G; E461Q; R462K; N531G; ΔC-term (Δ558-PFISQYNV (SEQ ID NO: 14)-565) (enzyme) .
0.24

Check soluble human C3b (human) data and give iC3b Screen Ref Fold (fold vs CFI-HSA wild type) for Δ(K1-P305); GGSSGG (SEQ ID NO: 6); fH_CCP1-4 (enzyme) .
0.04

---

# study system: human C4b (human)
# Sequence: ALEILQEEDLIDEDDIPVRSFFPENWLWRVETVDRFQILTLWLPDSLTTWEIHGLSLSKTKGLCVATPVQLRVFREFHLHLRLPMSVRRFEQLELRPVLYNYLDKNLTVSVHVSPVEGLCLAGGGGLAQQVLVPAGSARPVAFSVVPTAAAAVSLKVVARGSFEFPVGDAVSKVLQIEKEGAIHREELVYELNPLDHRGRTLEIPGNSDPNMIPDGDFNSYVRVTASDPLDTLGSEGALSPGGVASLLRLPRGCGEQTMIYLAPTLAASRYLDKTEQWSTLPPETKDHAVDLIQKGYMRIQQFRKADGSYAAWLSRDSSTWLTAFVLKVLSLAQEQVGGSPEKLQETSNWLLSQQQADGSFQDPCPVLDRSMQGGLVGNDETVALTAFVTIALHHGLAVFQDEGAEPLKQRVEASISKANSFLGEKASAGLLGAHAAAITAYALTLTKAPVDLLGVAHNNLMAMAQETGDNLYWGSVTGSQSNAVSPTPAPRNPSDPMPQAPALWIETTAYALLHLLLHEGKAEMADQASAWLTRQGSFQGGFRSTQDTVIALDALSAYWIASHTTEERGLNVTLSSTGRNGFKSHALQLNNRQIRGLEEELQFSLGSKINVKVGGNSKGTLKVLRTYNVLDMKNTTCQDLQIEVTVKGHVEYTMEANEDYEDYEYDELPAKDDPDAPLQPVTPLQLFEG
Threshold 60 nM: C4c EC50 strictly smaller gives YES, otherwise NO.

Some entries whose results are on file:
# substance, study system, label
measured = [
    ("CFI-HSA variant Y408L; E457G; N531G; WT; GGSSGG (SEQ ID NO: 6); CR1(ccp15-17) (enzyme)", "human C4b (human)", "NO"),
    ("CFI-HSA variant E457G; WT; GGSSGG (SEQ ID NO: 6); CR1(ccp15-17) (enzyme)", "human C4b (human)", "YES"),
    ("CFI-HSA variant E457G; N531G; WT; GGSSGG (SEQ ID NO: 6); CR1(ccp15-17) (enzyme)", "human C4b (human)", "YES"),
    ("CFI-HSA variant Y408L; N531G; WT; GGSSGG (SEQ ID NO: 6); CR1(ccp15-17) (enzyme)", "human C4b (human)", "YES"),
    ("CFI-HSA variant Y408L; WT; GGSSGG (SEQ ID NO: 6); CR1(ccp15-17) (enzyme)", "human C4b (human)", "NO"),
    ("CFI-HSA variant E457G; P535G; WT; GGSSGG (SEQ ID NO: 6); CR1(ccp15-17) (enzyme)", "human C4b (human)", "YES"),
    ("CFI-HSA variant E457G; N531G; P535G; WT; GGSSGG (SEQ ID NO: 6); CR1(ccp15-17) (enzyme)", "human C4b (human)", "YES"),
]

Field: next substance
Regarding CFI-HSA variant Y408L; N531G; P535G; WT; GGSSGG (SEQ ID NO: 6); CR1(ccp15-17) (enzyme) , kindly confirm whether its C4c EC50 is beneath 60 nM.
NO
